- TARGET UNDER TEST: GST-tagged truncated human mutant G2019S LRRK2 (Homo sapiens (Human), UniProt Q5S007, G2019S)
- Sequence (Q5S007 970-2527 G2019S): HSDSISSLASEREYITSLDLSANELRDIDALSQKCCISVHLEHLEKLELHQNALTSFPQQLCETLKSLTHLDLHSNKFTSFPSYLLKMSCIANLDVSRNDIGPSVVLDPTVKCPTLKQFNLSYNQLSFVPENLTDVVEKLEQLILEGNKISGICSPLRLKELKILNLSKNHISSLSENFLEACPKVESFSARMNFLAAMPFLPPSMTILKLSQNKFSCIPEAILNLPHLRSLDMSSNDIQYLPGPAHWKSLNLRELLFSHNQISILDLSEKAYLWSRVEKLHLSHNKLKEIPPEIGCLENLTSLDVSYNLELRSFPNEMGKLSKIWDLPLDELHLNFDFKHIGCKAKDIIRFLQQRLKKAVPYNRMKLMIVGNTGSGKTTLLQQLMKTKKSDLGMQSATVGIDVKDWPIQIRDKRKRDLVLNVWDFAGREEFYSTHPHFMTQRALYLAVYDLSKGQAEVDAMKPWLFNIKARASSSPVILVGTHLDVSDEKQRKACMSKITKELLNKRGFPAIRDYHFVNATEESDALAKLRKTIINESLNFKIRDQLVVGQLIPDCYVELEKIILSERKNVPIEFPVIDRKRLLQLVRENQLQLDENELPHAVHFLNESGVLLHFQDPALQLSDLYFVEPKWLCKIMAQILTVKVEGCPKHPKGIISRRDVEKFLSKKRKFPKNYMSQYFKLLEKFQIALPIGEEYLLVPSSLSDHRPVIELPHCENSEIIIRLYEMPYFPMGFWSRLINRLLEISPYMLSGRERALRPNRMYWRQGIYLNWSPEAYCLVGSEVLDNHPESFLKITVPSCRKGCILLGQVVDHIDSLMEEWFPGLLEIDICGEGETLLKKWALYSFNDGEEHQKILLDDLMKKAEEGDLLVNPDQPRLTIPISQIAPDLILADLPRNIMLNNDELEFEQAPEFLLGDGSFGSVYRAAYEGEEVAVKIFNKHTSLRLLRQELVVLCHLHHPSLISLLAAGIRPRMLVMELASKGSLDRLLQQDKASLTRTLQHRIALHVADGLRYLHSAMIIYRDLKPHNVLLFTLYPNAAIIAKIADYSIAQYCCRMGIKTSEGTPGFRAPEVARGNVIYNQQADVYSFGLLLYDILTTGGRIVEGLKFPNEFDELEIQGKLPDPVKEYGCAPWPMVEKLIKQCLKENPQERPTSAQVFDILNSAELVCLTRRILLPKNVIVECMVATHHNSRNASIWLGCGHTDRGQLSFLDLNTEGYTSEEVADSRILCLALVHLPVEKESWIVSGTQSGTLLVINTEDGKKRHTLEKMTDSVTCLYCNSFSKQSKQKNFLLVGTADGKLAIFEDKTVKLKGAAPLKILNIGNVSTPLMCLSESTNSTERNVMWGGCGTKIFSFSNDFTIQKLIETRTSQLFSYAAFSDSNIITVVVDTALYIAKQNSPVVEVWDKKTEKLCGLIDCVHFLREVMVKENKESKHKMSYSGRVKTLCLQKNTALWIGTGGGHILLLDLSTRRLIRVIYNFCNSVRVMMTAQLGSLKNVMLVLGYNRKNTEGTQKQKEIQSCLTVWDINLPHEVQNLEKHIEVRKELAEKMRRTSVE
- ASSAY PROCEDURE: LRRK2 Km ATP LanthaScreen Assay
- MEASUREMENT CONDITIONS: 134 μM ATP (Km ATP); fluorescein-labeled LRRKtide substrate; mean IC50 values
PROPERTY: IC50 (nM)

| COMPOUND | PROPERTY | QUANTITY UNIT | MEASURED RESULT |
| --- | --- | --- | --- |
| N#CC1(c2ccc3cnn(-c4cc(N5CC[C@@H](CO)C5)ncn4)c3c2)CC2(CC2)C1 [Example 8] | IC50 | nM | 2.9 |
| CC1C(C(C)(C)O)CCN1c1cc(-n2ncc3ccc(C4(C#N)CC5(CC5)C4)cc32)ncn1 (single isomer, unassigned) [Example 39] | IC50 | nM | 1.2 |
| CC1C(C(C)(C)O)CCN1c1cc(-n2ncc3ccc(C4(C#N)CC5(CC5)C4)cc32)ncn1 (single isomer, unassigned) [Example 37] | IC50 | nM | 138 |
| C[C@H]1CN(c2cc(-n3ncc4ccc(C5(C#N)CC6(CC6)C5)cc43)ncn2)CCN1C1CCOC1 (single isomer, unassigned) [Example 35] | IC50 | nM | 3.5 |
| CC(C)(O)C12CC(C1)N(c1cc(-n3ncc4cnc(C5(C#N)CC6(CC6)C5)cc43)ncn1)C2 [Example 18] | IC50 | nM | 19.2 |
